Reported nm (Fold wt) values are given for each entry in this list.
- MEASUREMENT TARGET: T1, human folate receptor alpha (hFRα), recombinant protein (human, UniProt P15328 25-233)
- T1 construct: Bought recombinant proteins (His-tagged, or biotinylated via Avi-tag, e.g. AcroBiosystems FO1-H82E2, F01-H52H1); also called hFOLR1; huFOLR1
- T1 sequence (P15328 25-233 limits assumed): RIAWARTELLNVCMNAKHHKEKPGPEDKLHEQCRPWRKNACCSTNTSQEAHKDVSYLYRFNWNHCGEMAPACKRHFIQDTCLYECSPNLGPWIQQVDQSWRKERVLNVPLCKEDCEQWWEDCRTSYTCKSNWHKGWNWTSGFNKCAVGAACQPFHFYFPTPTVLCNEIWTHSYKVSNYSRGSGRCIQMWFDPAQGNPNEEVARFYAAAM
- ASSAY SUMMARY: BLI
# answer = number (no unit)

// below: answered binders
>  <BINDER>
P01500087: P0150001 with A24L, S27A, M32P, N67E (VHH) VHH: EVQLVESGGGLVQPGGSLRLSCALSGAGFSGPIMGWYRQAPGKQRELVATVTSHGTTNYADSVKGRFTISRDNAKETVYLQMNSLRPEDTAVYYCNAHFPGIYWGKGTLVTVSS

>  <nm (Fold wt)>
2

$$$$
>  <BINDER>
P01500014: P0150001 with M32P (VHH, Entry carries a His6 tag) VHH: EVQLVESGGGLVQPGGSLRLSCAASGSGFSGPIMGWYRQAPGKQRELVATVTSHGTTNYADSVKGRFTISRDNAKNTVYLQMNSLRPEDTAVYYCNAHFPGIYWGKGTLVTVSS

>  <nm (Fold wt)>
2

$$$$

Would you kindly look at the next entry?
Record P01500090: P0150001 with A24V, S27L, M32P, N67E (VHH) VHH: EVQLVESGGGLVQPGGSLRLSCAVSGLGFSGPIMGWYRQAPGKQRELVATVTSHGTTNYADSVKGRFTISRDNAKETVYLQMNSLRPEDTAVYYCNAHFPGIYWGKGTLVTVSS . Reported nm (Fold wt): 2

All values here come from patent US20250304677A1.
